Provenance of the data: paper PMC7226613

Test: in vitro
Settings: mouse
REPORTED_PROPERTY: CC50 at 24 h

Query string: Which CC50 at 24 h is reported for this molecule? "O=C1NC(=O)c2c1c1c3ccccc3[nH]c1c1[nH]c3ccccc3c21"
Result string: > 40 µM

Now, please, on to the next molecule.
Query string: Which CC50 at 24 h is reported for this molecule? C[C@]12O[C@H](C[C@]1(O)C(=O)O)n1c3ccccc3c3c4c(c5c6ccccc6n2c5c31)CNC4=O [Compound 7, K252b]
Result string: > 40 µM

* * *

Experiment: Cytotoxicity assay (AlamarBlue)
Conditions: mouse
REPORTED_PROPERTY: CC50 at 24 h (µM)
Just the number please, in µM, no unit attached.

Query string: Which CC50 at 24 h is reported for this molecule? COC(=O)[C@@]1(O)C[C@H]2O[C@]1(C)n1c3ccccc3c3c4c(c5c6ccccc6n2c5c31)C(=O)NC4 [Compound 6, K252a]
Result string: 1.07

Now, please, on to the next molecule.
Query string: Which CC50 at 24 h is reported for this molecule? CN[C@@H]1C[C@H]2O[C@@](C)([C@@H]1OC)n1c3ccccc3c3c4c(c5c6ccccc6n2c5c31)C(=O)NC4=O [Compound 2, 7-oxostaurosporine]
Result string: 5.2
